Source: ChEMBL document CHEMBL3745645

Tested on: Malme-3M
Test: Cytotoxicity against human MALME-3M cells at 10 uM after 48 hrs by SRB assay
Assay type: functional
Conditions: read-out: GI
Label rule, in plain words: inhibition of growth at 10 µM of 10% and up is 1, under 10% is 0.

The examples below pair each entry with its known result.
{"columns": ["SMILES_DATA", "CLASS_NAME"],
 "data": [
  ["Cc1nc2ccc(Nc3nc(Cl)nc(Nc4ccc(F)cc4)n3)cc2n1Cc1ccccc1", 1],
  ["Cc1nc2cc(Nc3nc(Nc4ccc(F)cc4)nc(-c4ccccc4)n3)ccc2n1Cc1ccccc1", 1],
  ["Cc1nc2ccc(Nc3nc(NCCO)nc(Nc4ccc(F)cc4)n3)cc2n1Cc1ccccc1", 0]
]}

Now consider the entry below.
// query Does inhibition of growth at 10 µM meet or surpass 10% for Cc1nc2ccc(Nc3nc(NCCN)nc(Nc4ccc(F)cc4)n3)cc2n1Cc1ccccc1 ?
// result 1
